molecular target: hPPARα (Homo sapiens); construct: fragments of DNA amplified by PCR corresponding to the DEF domains of the human PPARα, PPARγ PPARδ nuclear receptors; expressed in transfected cells; host or cells: COS-7 (monkey kidney fibroblast line); assay: Gal4-hPPARα chimera transactivation in COS-7 cells (luciferase); format: cell-based; settings: induction factor standardised to an internal reference, read-out: % hGal4-PPAR transactivation (10 μM) alpha
Sequence (Q07869 239-466 limits assumed): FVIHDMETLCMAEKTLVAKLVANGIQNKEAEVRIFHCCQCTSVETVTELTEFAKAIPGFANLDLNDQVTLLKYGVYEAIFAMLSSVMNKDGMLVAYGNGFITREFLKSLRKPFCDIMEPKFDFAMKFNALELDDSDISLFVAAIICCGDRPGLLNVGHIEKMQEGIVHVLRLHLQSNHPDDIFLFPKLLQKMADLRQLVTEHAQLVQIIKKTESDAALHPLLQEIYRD
readout_type: activation at 10 µM (%)

>  <compound>
CC(C)CC(NC(=O)Cc1ccc(OCCCCC(C)(C)C(=O)O)cc1)c1ccccc1N1CCCCC1 (centres unmarked) [Compound 57]

>  <assay_system>
hPPARα (Homo sapiens)

>  <display_unit>
%

>  <activation at 10 µM>
29

$$$$
>  <compound>
CCCCCCC(NC(=O)Cc1ccc(OC(C)(C)C(=O)O)cc1)c1ccccc1N1CCCCC1 (centres unmarked) [Compound 5]

>  <assay_system>
hPPARα (Homo sapiens)

>  <display_unit>
%

>  <activation at 10 µM>
31

$$$$
>  <compound>
CCN(CCCC(C)(C)C(=O)O)c1ccc(CC(=O)NC(CC(C)C)c2ccccc2N2CCCCC2)cc1 (centres unmarked) [Compound 46]

>  <assay_system>
hPPARα (Homo sapiens)

>  <display_unit>
%

>  <activation at 10 µM>
58

$$$$
>  <compound>
CCCC(NC(=O)Cc1ccc(OC(C)(C)C(=O)NS(C)(=O)=O)cc1)c1ccccc1N1CCCCC1 (centres unmarked) [Compound 66]

>  <assay_system>
hPPARα (Homo sapiens)

>  <display_unit>
%

>  <activation at 10 µM>
40

$$$$

(P) CCCCC(NC(=O)Cc1ccc(OC(C)(C)C(=O)O)cc1)c1ccc(-n2ccc3ccccc32)cc1N1CCCCC1 (centres unmarked) [Compound 38]
(Q) CCCCC(NC(=O)Cc1ccc(OC(C)(C)C(=O)NS(=O)(=O)Cc2ccccc2)cc1)c1ccccc1N1CCCCC1 (centres unmarked) [Compound 63]
(R) CCCCC(NC(=O)Cc1ccc(OC(C)(C)C(=O)O)cc1)c1ccccc1Sc1ccccc1 (centres unmarked) [Compound 36]
### Prompt Sort the 3 compounds by activation at 10 µM; largest first, smallest last. When ranking, write the labels in the order the request describes.
### Response R, Q, P
(R: 54%, Q: 26%, P: 13%)

---

molecular target: ATP-dependent potassium channels (K+ATP) (Rattus norvegicus, UniProt Q09429); construct: the potassium channels derive from a rat's cerebral cortex; tissue CEREP; host or cells: rat cerebral cortex; test: [3H]glibenclamide binding to ATP-dependent potassium channels of rat cerebral cortex; settings: 1 h; 300 nM; specific displacement of [3H]glibenclamide 0.1 nM; read-out: KATP binding (300 nM)
Sequence (Q09429 whole entry): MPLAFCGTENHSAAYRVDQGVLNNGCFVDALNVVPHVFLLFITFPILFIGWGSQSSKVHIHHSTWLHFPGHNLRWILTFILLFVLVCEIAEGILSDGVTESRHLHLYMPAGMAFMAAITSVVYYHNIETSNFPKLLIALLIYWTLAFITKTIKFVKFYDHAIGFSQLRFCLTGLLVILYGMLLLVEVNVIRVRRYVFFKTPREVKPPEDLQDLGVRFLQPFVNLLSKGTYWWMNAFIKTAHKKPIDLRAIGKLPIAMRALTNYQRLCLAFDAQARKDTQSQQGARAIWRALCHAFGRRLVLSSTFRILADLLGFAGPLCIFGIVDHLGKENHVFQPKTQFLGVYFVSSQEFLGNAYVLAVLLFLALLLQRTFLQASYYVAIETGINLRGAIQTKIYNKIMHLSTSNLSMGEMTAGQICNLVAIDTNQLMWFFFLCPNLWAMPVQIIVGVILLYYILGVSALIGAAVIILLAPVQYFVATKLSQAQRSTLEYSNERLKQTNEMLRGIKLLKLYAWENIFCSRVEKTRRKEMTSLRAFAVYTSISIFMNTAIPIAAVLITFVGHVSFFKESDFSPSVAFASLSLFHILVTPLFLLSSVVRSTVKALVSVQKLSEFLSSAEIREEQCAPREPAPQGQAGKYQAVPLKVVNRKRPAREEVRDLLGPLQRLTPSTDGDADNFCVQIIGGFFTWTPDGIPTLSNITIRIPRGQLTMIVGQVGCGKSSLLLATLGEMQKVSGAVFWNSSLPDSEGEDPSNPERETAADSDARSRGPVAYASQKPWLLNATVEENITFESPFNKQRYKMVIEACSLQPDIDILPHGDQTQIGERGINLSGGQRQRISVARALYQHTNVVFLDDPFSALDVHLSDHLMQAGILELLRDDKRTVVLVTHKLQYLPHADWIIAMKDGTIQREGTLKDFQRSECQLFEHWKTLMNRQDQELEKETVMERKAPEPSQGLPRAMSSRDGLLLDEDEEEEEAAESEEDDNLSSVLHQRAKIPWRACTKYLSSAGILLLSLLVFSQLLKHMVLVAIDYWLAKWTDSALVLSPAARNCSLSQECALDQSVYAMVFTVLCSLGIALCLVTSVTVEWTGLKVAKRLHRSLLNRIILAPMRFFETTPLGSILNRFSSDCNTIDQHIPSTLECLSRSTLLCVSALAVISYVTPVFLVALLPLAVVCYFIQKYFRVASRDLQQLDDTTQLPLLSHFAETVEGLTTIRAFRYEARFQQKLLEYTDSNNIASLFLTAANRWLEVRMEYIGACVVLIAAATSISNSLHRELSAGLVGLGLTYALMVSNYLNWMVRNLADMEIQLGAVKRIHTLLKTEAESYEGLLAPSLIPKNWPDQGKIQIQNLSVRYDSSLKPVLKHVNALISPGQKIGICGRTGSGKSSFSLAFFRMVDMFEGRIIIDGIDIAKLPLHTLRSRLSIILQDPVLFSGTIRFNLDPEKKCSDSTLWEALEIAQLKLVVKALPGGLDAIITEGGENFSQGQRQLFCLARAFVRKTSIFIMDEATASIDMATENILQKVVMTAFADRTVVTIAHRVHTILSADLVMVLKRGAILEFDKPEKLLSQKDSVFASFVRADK
Sequence (P70673 whole entry partner): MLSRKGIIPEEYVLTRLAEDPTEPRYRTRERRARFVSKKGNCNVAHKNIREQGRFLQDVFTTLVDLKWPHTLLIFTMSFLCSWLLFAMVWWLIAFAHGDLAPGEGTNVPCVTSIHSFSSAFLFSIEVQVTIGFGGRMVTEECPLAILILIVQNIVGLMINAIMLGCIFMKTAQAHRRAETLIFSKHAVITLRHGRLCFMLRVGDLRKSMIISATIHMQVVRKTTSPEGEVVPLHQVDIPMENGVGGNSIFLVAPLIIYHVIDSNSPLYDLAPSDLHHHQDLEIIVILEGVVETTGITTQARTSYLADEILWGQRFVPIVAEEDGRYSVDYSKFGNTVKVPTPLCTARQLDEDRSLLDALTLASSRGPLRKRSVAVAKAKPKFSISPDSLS
readout_type: inhibition at 0.3 µM (%)

>  <compound>
CCCCC(NC(=O)Cc1ccc(OC(C)(C)C(=O)O)cc1)c1ccc(Br)cc1N1CCCCC1 (centres unmarked)

>  <display_unit>
%

>  <recorded_number>
51

$$$$
>  <compound>
CCCCC(NC(=O)Cc1ccc(OC(C)(C)C(=O)O)cc1)c1ccccc1S(=O)(=O)c1ccccc1 (centres unmarked)

>  <display_unit>
%

>  <recorded_number>
12

$$$$
>  <compound>
CCCCC(NC(=O)Cc1ccc(OC(C)(C)C(=O)NS(C)(=O)=O)cc1)c1ccccc1N1CCCCC1 (centres unmarked)

>  <display_unit>
%

>  <recorded_number>
83

$$$$

(a) CC(C)CC(NC(=O)Cc1ccc(OC(C)(C)C(=O)O)cc1)c1cccc(N2CCCCC2)c1 (centres unmarked)
(b) CC(C)CC(C(=O)NCc1ccc(OC(C)(C)C(=O)O)cc1)c1ccccc1N1CCCCC1 (centres unmarked)
### Prompt Determine, for a and b , which has the greater value of inhibition at 0.3 µM. Give the label of your selection.
### Response b

(a) CCCCC(NC(=O)Cc1ccc(OC(C)(C)C(=O)O)cc1)c1cccc(F)c1N1CCCCC1 (centres unmarked)
(b) CCCCC(NC(=O)Cc1ccc(OC(C)(C)C(=O)O)cc1)c1ccccc1Sc1ccccc1 (centres unmarked)
### Prompt Determine, for a and b , which has the greater value of inhibition at 0.3 µM. Give the label of your selection.
### Response a

---

Each entry below lists one item and its recorded activation at 10 µM value.
target: hPPARα (Homo sapiens); construct: fragments of DNA amplified by PCR corresponding to the DEF domains of the human PPARα, PPARγ PPARδ nuclear receptors; expressed in transfected cells; host or cells: COS-7 (monkey kidney fibroblast line); experiment: Gal4-hPPARα chimera transactivation in COS-7 cells (luciferase); assay type: cell-based; details: induction factor standardised to an internal reference, read-out: % hGal4-PPAR transactivation (10 μM) alpha

>  <molecule>
CCCCC(NC(=O)Cc1ccc(OC(C)(C)C(=O)O)cc1)c1ccc(Br)cc1N1CCCCC1 (centres unmarked) [Compound 33]

>  <result>
< 10%

$$$$
>  <molecule>
CCCCC(NC(=O)Cc1ccc(OCC(C)(C)C(=O)O)cc1)c1ccccc1N1CCCCC1 (centres unmarked) [Compound 42]

>  <result>
32%

$$$$
>  <molecule>
CCCCC(NC(=O)Cc1ccc(OC(C)(C)C(=O)NS(C)(=O)=O)cc1)c1ccccc1OC (centres unmarked) [Compound 67]

>  <result>
< 10%

$$$$
>  <molecule>
CCCCC(NC(=O)Cc1ccc(OC(C)(C)C(=O)O)c(OC)c1)c1ccccc1N1CCCCC1 (centres unmarked) [Compound 73]

>  <result>
< 10%

$$$$

Kindly note the recorded activation at 10 µM for Cc1cccc(CC(NC(=O)Cc2ccc(OC(C)(C)C(=O)O)cc2)c2ccccc2N2CCCCC2)c1 (centres unmarked) [Compound 55] , which is < 10%

Kindly note the recorded activation at 10 µM for CCCCC(NC(=O)Cc1ccc(OC(C)(C)C(=O)O)cc1)c1ccccc1N1C[C@H](C)C[C@H](C)C1 (some centres unmarked) [Compound 43] , which is 27%

Kindly note the recorded activation at 10 µM for CC(NC(=O)Cc1ccc(OC(C)(C)C(=O)O)cc1)c1ccccc1N1CCCCCC1 (centres unmarked) [Compound 15] , which is < 10%

Kindly note the recorded activation at 10 µM for CC(C)CC(NC(=O)Cc1ccc(OC(C)(C)C(=O)O)cc1)c1ccc(-c2ccccc2)cc1N1CCCCC1 (centres unmarked) [Compound 39] , which is 16%

---

Molecular target: hPPARγ (Homo sapiens, UniProt P37231)
Construct: fragments of DNA amplified by PCR corresponding to the DEF domains of the human PPARα, PPARγ PPARδ nuclear receptors; expressed in transfected cells; host or cells: COS-7 (monkey kidney fibroblast line)
Sequence (P37231 238-503 limits assumed): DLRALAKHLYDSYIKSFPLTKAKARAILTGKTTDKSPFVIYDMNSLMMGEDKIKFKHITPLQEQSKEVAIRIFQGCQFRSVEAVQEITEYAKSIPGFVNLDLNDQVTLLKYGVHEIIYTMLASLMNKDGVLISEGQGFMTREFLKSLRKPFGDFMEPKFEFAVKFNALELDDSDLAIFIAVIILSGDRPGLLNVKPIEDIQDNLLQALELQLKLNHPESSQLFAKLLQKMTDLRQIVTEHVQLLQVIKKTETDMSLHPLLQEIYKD
Experiment: Gal4-hPPARγ chimera transactivation in COS-7 cells (luciferase)
Format: cell-based
Conditions: induction factor standardised to an internal reference, read-out: % hGal4-PPAR transactivation (10 μM) gamma
readout_type: activation at 10 µM (%)

Known results for compounds:
>  <compound>
CCCCC(NC(=O)Cc1ccccc1OCCCC(C)(C)C(=O)O)c1ccccc1N1CCCCC1 (centres unmarked)

>  <assay_system>
hPPARγ (Homo sapiens, UniProt P37231)

>  <activation at 10 µM / %>
40

$$$$
>  <compound>
CCCC(NC(=O)Cc1ccc(OC(C)(C)C(=O)O)cc1)c1ccccc1N1CCCCC1 (centres unmarked)

>  <assay_system>
hPPARγ (Homo sapiens, UniProt P37231)

>  <activation at 10 µM / %>
50

$$$$
>  <compound>
CCCCC(NC(=O)Cc1ccc(OCc2nnn[nH]2)cc1)c1ccccc1N1CCCCC1 (centres unmarked)

>  <assay_system>
hPPARγ (Homo sapiens, UniProt P37231)

>  <activation at 10 µM / %>
13

$$$$

(P) CCCCC(NC(=O)Cc1ccc(OC(C)(C)C(=O)O)cc1)c1ccccc1N1C[C@H](C)C[C@H](C)C1 (some centres unmarked)
(Q) CCN(CCCC(C)(C)C(=O)O)c1ccc(CC(=O)NC(CC(C)C)c2ccccc2N2CCCCC2)cc1 (centres unmarked)
### Prompt Determine, for P and Q , which has the greater value of activation at 10 µM. Give the label of your selection.
### Response P

---

Target: hPPARδ (Homo sapiens, UniProt Q03181)
Construct: fragments of DNA amplified by PCR corresponding to the DEF domains of the human PPARα, PPARγ PPARδ nuclear receptors; expressed in transfected cells; host or cells: COS-7 (monkey kidney fibroblast line)
Sequence (Q03181 211-439 limits assumed): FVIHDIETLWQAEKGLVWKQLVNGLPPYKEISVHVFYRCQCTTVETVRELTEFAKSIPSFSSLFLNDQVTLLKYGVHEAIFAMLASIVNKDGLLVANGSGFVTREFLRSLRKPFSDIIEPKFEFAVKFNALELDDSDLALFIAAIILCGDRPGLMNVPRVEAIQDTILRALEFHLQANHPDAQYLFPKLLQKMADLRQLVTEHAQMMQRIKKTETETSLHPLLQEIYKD
Test: Gal4-hPPARδ chimera transactivation in COS-7 cells (luciferase)
Format: cell-based
Details: induction factor standardised to an internal reference, read-out: % hGal4-PPAR transactivation (10 μM) delta
readout_type: activation at 10 µM

>  <molecule>
CC(C)CC(C(=O)NCc1ccc(OC(C)(C)C(=O)O)cc1)c1ccccc1N1CCCCC1 (stereo not shown) [Compound 32]

>  <assay_system>
hPPARδ (Homo sapiens, UniProt Q03181)

>  <activation at 10 µM>
< 10%

$$$$
>  <molecule>
CCCCC(NC(=O)Cc1ccc(OC(C)(C)C(=O)NS(=O)(=O)Cc2ccccc2)cc1)c1ccccc1N1CCCCC1 (stereo not shown) [Compound 63]

>  <assay_system>
hPPARδ (Homo sapiens, UniProt Q03181)

>  <activation at 10 µM>
< 10%

$$$$
>  <molecule>
CC(C)CC(NC(=O)Cc1ccc(OC(C)(C)C(=O)O)cc1)c1ccc(C(F)(F)F)cc1N1CCCCC1 (stereo not shown) [Compound 21]

>  <assay_system>
hPPARδ (Homo sapiens, UniProt Q03181)

>  <activation at 10 µM>
24%

$$$$
>  <molecule>
CCCCC(NC(=O)Cc1ccc(OC(C)(C)C(=O)O)cc1)c1ccc(-n2cccc2)cc1N1CCCCC1 (stereo not shown) [Compound 49]

>  <assay_system>
hPPARδ (Homo sapiens, UniProt Q03181)

>  <activation at 10 µM>
57%

$$$$
>  <molecule>
CC(C)(Oc1ccc(CC(=O)NC(Cc2ccccc2)c2ccccc2N2CCCCC2)cc1)C(=O)O (stereo not shown) [Compound 7]

>  <assay_system>
hPPARδ (Homo sapiens, UniProt Q03181)

>  <activation at 10 µM>
< 10%

$$$$

Kindly note the recorded activation at 10 µM for CCCCC(NC(=O)Cc1ccc(OC(C)(C)C(=O)NS(=O)(=O)c2ccccc2)cc1)c1ccccc1N1CCCCC1 (stereo not shown) [Compound 61] , which is < 10%

Kindly note the recorded activation at 10 µM for CC(C)CC(NC(=O)Cc1ccc(OC(C)(C)C(=O)NS(=O)(=O)C(F)(F)F)cc1)c1ccccc1N1CCCCC1 (stereo not shown) [Compound 59] , which is < 10%
